- Assayed Target: elastase (Homo sapiens, UniProt P08246)
- Construct: fresh, heparinised human whole blood; endogenous in cells
- Sequence (P08246 30-267): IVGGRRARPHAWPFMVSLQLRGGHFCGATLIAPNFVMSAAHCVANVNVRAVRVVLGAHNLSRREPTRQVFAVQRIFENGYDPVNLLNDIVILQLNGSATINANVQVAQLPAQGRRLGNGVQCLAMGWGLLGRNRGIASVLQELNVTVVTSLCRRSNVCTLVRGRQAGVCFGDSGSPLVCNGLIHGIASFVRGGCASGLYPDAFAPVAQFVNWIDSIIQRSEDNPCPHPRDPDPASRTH
- Method: Human whole blood elastase inhibition assay
- Details: heparinised, 30 minutes at 37° C.
Where a name gives a salt, the structure may show the parent alone.
Measured Parameter: IC50 (nM)

Examples with their reported IC50 follow.
INPUT: # get_value(readout='IC50', item= CCCCN1CC(C(=O)N2CC[C@H]3[C@H]2[C@@H](C(C)C)C(=O)N3S(C)(=O)=O)C1 (relative stereo) [Example 5, hydrochloride] )
OUTPUT: 1700

INPUT: What does the record list as IC50 for CC(C)[C@H]1C(=O)N(S(C)(=O)=O)[C@H]2CCN(C(=O)C3CN(CC4CC4)C3)[C@H]12 (relative stereo) [Example 1, hydrochloride] ?
OUTPUT: 5400

A. CC(C)[C@H]1C(=O)N(S(C)(=O)=O)[C@H]2CCN(C(=O)C3CN(Cc4ccccc4)C3)[C@H]12 (relative stereo) [Example 2, hydrochloride]
B. CC(C)[C@H]1C(=O)N(S(C)(=O)=O)[C@H]2CCN(C(=O)C3CN(Cc4c(Cl)cccc4Cl)C3)[C@H]12 (relative stereo) [Example 4, hydrochloride]
INPUT: Lab log: flag the item ( A or B ) with the smaller IC50 figure. // output: label of the selected item
OUTPUT: A
(A: 810 nM, B: 1200 nM)
